# SYSTEM TESTED: human recombinant PDE10A (Homo sapiens, UniProt Q9Y233)
# Construct: made in house; host or cells: SF21 insect cells (baculovirus)
# Sequence (Q9Y233 1-779 isoform Q9Y233-1): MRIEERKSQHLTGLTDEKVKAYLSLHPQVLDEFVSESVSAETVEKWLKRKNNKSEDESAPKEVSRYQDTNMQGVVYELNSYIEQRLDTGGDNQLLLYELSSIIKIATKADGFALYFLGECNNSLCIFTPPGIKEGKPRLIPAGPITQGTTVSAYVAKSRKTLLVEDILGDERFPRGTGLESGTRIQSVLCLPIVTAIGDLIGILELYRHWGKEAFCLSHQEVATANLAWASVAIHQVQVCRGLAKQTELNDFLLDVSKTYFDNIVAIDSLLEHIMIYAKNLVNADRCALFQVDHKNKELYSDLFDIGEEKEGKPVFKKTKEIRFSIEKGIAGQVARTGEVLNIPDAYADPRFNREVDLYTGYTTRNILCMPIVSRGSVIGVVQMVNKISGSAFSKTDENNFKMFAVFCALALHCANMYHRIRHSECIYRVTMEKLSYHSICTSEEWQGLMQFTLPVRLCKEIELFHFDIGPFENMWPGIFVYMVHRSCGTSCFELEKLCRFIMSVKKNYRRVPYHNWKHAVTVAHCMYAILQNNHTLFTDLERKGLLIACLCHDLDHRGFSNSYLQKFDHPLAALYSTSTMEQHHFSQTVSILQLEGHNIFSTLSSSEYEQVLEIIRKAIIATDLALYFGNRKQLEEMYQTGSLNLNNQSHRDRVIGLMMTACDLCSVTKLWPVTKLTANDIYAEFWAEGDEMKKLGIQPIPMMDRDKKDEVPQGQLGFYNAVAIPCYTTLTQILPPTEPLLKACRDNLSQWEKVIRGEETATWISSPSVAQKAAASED
# ASSAY PROTOCOL: Inhibition of PDE10, human recombinant PDE10A ([3H]-cAMP SPA)
# Type: biochemical
# EXPERIMENTAL CONDITIONS: Table 9; read-out: hPDE10 IC50
pIC50: −log10 of the molar value.
Readings of pIC50 for the listed compounds

Worked set:
COc1ccc2nc(C)c3c(C)nc(-c4ccc(N(C)C)nc4)n3c2n1 < 7.00
Cc1ccccc1-c1nc(C)c2c(C)nc3ccc(OCCF)nc3n12 > 8.00
COc1ccc2nc(C)c3c(C)nc(-c4cnn(CC(C)C)c4)n3c2n1 < 7.00

Okay, now this compound:
Recorded result, `Cc1ccccc1-c1nc(C)c2c(C)nc3ccc(OCC(F)F)nc3n12` , pIC50: > 8.00

* * *

# SYSTEM TESTED: PDE10 from pig striatum (Sus scrofa)
# ASSAY PROTOCOL: Inhibition of PDE10 from pig striatum ([3H]-cAMP SPA)
# Format: biochemical
# EXPERIMENTAL CONDITIONS: Method B, PDE10 from striatum of pig; read-out: IC50
VALUE TYPE: IC50 (nM)
Dear colleague, please return just the value in nM, with no unit written.

Recorded result, COc1ccc(Cc2nccc3cc(OC)c(OC)cc23)cc1OC [Papaverine, papaverine] , IC50: 110

* * *

Readings of pIC50 for the listed compounds
# SYSTEM TESTED: human recombinant PDE10A (Homo sapiens, UniProt Q9Y233)
# Construct: made in house; host or cells: SF21 insect cells (baculovirus)
# ASSAY PROTOCOL: Inhibition of PDE10, human recombinant PDE10A ([3H]-cAMP SPA)
# Type: biochemical
# EXPERIMENTAL CONDITIONS: Table 9; read-out: hPDE10 IC50
pIC50: −log10 of the molar value.

Worked set:
COc1ccc2nc(C#N)c3c(C)nc(-c4ccncc4)n3c2n1 < 7.00
Cc1ccc(C(N)=O)cc1-c1nc(C)c2c(C)nc3ccc(OCC4CC4)nc3n12 > 8.00
Cc1nc(F)ccc1-c1nc(C)c2c(C)nc3ccc(OCC4CC4)nc3n12 > 8.00
COc1ccc2nc(C#N)c3c(C)nc(-c4ccccc4C)n3c2n1 7.00 to 8.00
Cc1nc(-c2cc(F)cc(C(N)=O)c2)n2c1c(C)nc1ccc(OCC3CC3)nc12 > 8.00

Value sought: pIC50, system human recombinant PDE10A (Homo sapiens, UniProt Q9Y233), item `Cc1ccccc1-c1nc(C)c2c(C)nc3ccc(OCc4ccc(F)cc4)nc3n12` . Result: 7.00 to 8.00

Value sought: pIC50, system human recombinant PDE10A (Homo sapiens, UniProt Q9Y233), item `Cc1ccncc1-c1nc(C)c2c(C)nc3ccc(=O)[nH]c3n12` . Result: < 7.00

Value sought: pIC50, system human recombinant PDE10A (Homo sapiens, UniProt Q9Y233), item `COc1ccc2nc(C)c3c(C)nc(-c4ccnc(F)c4)n3c2n1` . Result: 7.00 to 8.00

Value sought: pIC50, system human recombinant PDE10A (Homo sapiens, UniProt Q9Y233), item `Cc1cc(C(=O)O)ccc1-c1nc(C)c2c(C)nc3ccc(OCC4CC4)nc3n12` . Result: < 7.00

* * *

Readings of IC50 for the listed compounds
# SYSTEM TESTED: UniProt:A0A287B941
# ASSAY PROTOCOL: Inhibition of PDE10 from pig striatum ([3H]-cAMP SPA)
# Type: biochemical
# EXPERIMENTAL CONDITIONS: Table 8; read-out: PDE10 pig IC50

Worked set:
COc1ccc2nc(C)c3c(C)nc(-c4cccc(OC(F)(F)F)c4)n3c2n1 10 to 100 nM
COc1ccc2nc(C)c3c(C)nc(CCC(F)(F)F)n3c2n1 10 to 100 nM
COc1ccc2nc(C)c3c(C)nc(-c4ccc(-c5ccccc5)cc4)n3c2n1 > 100 nM
COc1ccc(C#Cc2nc(C)c3c(C)nc4ccc(OC)nc4n23)cc1 10 to 100 nM
COc1ccc2nc(C)c3c(C)nc(-c4ccoc4)n3c2n1 10 to 100 nM

Recorded result, `COc1ccc2nc(C)c3c(C)nc(-c4cc(F)ccc4C)n3c2n1` , IC50: < 10 nM

Recorded result, `COc1ccc2nc(C)c3c(C)nc(-c4ccccc4-c4ccccc4)n3c2n1` , IC50: 10 to 100 nM

Recorded result, `COc1ccc2nc(C)c3c(C)nc(-c4cccc(C(F)(F)F)c4)n3c2n1` , IC50: 10 to 100 nM

Recorded result, `COc1ccc2nc(C)c3c(C)nc(-c4cccc(C)c4)n3c2n1` , IC50: < 10 nM

Recorded result, `COc1ccc2nc(C)c3c(C)nc(-c4cc(C(N)=O)ccc4F)n3c2n1` , IC50: < 10 nM

Recorded result, `CNC(=O)c1ccc(F)c(-c2nc(C)c3c(C)nc4ccc(OC)nc4n23)c1` , IC50: > 100 nM

Recorded result, `COc1ccc2nc(C)c3c(C)nc(-c4cccc(-c5ccccc5)c4)n3c2n1` , IC50: 10 to 100 nM

Recorded result, `COc1ccc2nc(Cl)c3c(C)nc(CCC(F)(F)F)n3c2n1` , IC50: 10 to 100 nM

Recorded result, `COc1ccc2nc(C)c3c(C)nc(C#Cc4ccccc4Cl)n3c2n1` , IC50: 10 to 100 nM

* * *

# SYSTEM TESTED: PDE10 from pig striatum (Sus scrofa)
# ASSAY PROTOCOL: Inhibition of PDE10 from pig striatum ([3H]-cAMP SPA)
# Format: biochemical
# EXPERIMENTAL CONDITIONS: Table 7; read-out: PDE10 pig IC50
VALUE TYPE: IC50

Worked set:
COMPOUND	SYSTEM TESTED	VALUE TYPE	RESULT
COc1ccc2nc(C)c3c(C)nc(-c4cccnc4)n3c2n1 [Example 10]	PDE10 from pig striatum (Sus scrofa)	IC50	0.01 to 0.1 µM
COc1ccc2nc(C)c3c(C)nc(-c4cc(F)ccc4Cl)n3c2n1 [Example 22]	PDE10 from pig striatum (Sus scrofa)	IC50	< 0.01 µM
CCOc1ccc(Cl)c(-c2nc(C)c3c(C)nc4ccc(OC)nc4n23)c1 [Example 26]	PDE10 from pig striatum (Sus scrofa)	IC50	0.01 to 0.1 µM
COc1ccc2nc(C)c3c(C)nc(-c4ccc(Cl)cc4C)n3c2n1 [Example 13]	PDE10 from pig striatum (Sus scrofa)	IC50	< 0.01 µM
COc1ccc2nc(C)c3c(C)nc(-c4cc(C(F)(F)F)ccc4Cl)n3c2n1 [Example 23]	PDE10 from pig striatum (Sus scrofa)	IC50	< 0.01 µM
CCCc1nc(C)c2c(Cl)nc3ccc(OCC)nc3n12 [Example 2]	PDE10 from pig striatum (Sus scrofa)	IC50	< 0.01 µM
COc1ccc(-c2nc(C)c3c(C)nc4ccc(OC)nc4n23)cn1 [Example 28]	PDE10 from pig striatum (Sus scrofa)	IC50	0.01 to 0.1 µM
COc1ccc2nc(C)c3c(C)nc(-c4cc(Cl)cc(Cl)c4)n3c2n1 [Example 6]	PDE10 from pig striatum (Sus scrofa)	IC50	0.01 to 0.1 µM

Okay, now this compound:
Recorded result, COc1ccc2nc(C)c3c(C)nc(-c4ccncc4)n3c2n1 [Example 11] , IC50: 0.01 to 0.1 µM

* * *

Readings of pIC50 for the listed molecules
# SYSTEM TESTED: PDE10 from pig striatum (Sus scrofa, UniProt A0A287B941)
# ASSAY PROTOCOL: Inhibition of PDE10 from pig striatum ([3H]-cAMP SPA)
# Format: biochemical
# EXPERIMENTAL CONDITIONS: Table 7; read-out: PDE10 pig IC50
pIC50: −log10 of the molar value.

Worked set:
MOLECULE	SYSTEM TESTED	RESULT
COc1ccc2nc(C)c3c(C)nc(-c4ccc(C)cc4Cl)n3c2n1 [Example 12]	PDE10 from pig striatum (Sus scrofa, UniProt A0A287B941)	> 8.00
COc1ccc2nc(C)c3c(C)nc(-c4cncnc4)n3c2n1 [Example 27]	PDE10 from pig striatum (Sus scrofa, UniProt A0A287B941)	> 8.00
CCCc1nc(C)c2c(C)nc3ccc(OCC)nc3n12 [Example 3]	PDE10 from pig striatum (Sus scrofa, UniProt A0A287B941)	7.00 to 8.00

Recorded result, COc1ccc2nc(C)c3c(C)nc(-c4cc(C#N)ccc4Cl)n3c2n1 [Example 25] , pIC50: > 8.00

Recorded result, COc1ccc2nc(C)c3c(C)nc(-c4cccc(F)c4)n3c2n1 [Example 5] , pIC50: 7.00 to 8.00

Recorded result, COc1ccc(-c2nc(C)c3c(C)nc4ccc(OC)nc4n23)c(Cl)c1 [Example 18] , pIC50: > 8.00

Recorded result, CCOc1ccc2nc(C)c3c(C)nc(-c4ccccc4Cl)n3c2n1 [Example 4] , pIC50: > 8.00
